tested.on: T1, FZD5 CRD (Homo sapiens, UniProt Q13467)
T1 construct: K29-T156; GPI anchor signal (C); expressed in transfected cells; host or cells: CHO cells, lentiviral pLenti-puro
T1 sequence (Q13467 29-156): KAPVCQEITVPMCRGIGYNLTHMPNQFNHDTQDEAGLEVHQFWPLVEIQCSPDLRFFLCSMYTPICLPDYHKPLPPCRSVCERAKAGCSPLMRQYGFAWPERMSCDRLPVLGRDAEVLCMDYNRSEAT
method.description: Immunofluorescence of anti-FZD5 Fab binding to CHO cells overexpressing Frizzled CRD
Design: key: −: no binding; +: very weak binder; ++: weak binder; +++: good binder; ++++: very good binder
Experimental: Plasmids: pLCKO lentiviral vector used for knockout (TKO) library construction and expression of individual gRNAs was constructed as described previously (Hart et al., 2015). Briefly, single guide RNA (sgRNA) scaffold was amplified from px330 (Addgene 42230) and cloned into pLKO.TRC005 lentiviral vector (Broad Institute, Cambridge, Mass.) using AgeI/EcoRI restriction sites. BfuAI sites were added at the 5′ end of the sgRNA scaffold for cloning the TKO library or individual gRNA target sequences. […]
reported.property: Immunofluorescence binding, Frizzled CRD overexpressed on CHO cells: FZD5

Fab-2911: anti-FZD5 Fab with antibody variable region Fv-2911; CDR SEQ ID NOs: 35, 36, 50, 89, 126, 163 (antibody, V domains shown) VH: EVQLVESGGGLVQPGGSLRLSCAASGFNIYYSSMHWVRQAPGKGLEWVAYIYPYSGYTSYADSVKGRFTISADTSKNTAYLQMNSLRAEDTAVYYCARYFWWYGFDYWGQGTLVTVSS VL: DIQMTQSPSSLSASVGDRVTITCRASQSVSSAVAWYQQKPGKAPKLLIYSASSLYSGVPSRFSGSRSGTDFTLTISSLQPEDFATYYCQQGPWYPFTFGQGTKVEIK; ++
Fab-2900: anti-FZD5 Fab with antibody variable region Fv-2900; CDR SEQ ID NOs: 35, 36, 39, 78, 115, 153 (antibody, V domains shown) VH: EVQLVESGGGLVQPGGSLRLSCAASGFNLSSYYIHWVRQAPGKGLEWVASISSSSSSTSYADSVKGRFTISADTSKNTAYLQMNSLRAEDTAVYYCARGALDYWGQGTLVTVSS VL: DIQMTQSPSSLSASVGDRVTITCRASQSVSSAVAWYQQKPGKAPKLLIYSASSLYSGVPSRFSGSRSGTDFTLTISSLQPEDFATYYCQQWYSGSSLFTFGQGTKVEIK; ++++
Fab-2898: anti-FZD5 Fab with antibody variable region Fv-2898; CDR SEQ ID NOs: 35, 36, 37, 76, 113, 152 (antibody, V domains shown) VH: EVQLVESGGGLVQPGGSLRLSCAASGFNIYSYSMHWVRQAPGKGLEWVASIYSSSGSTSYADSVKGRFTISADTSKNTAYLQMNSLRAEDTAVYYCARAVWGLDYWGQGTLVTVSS VL: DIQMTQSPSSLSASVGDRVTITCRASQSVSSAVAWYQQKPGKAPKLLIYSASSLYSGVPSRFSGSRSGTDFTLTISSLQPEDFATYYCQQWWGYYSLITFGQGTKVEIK; +++
Fab-2924: anti-FZD5 Fab with antibody variable region Fv-2924; CDR SEQ ID NOs: 35, 36, 63, 101, 139, 153 (antibody, V domains shown) VH: EVQLVESGGGLVQPGGSLRLSCAASGFNISYSYIHWVRQAPGKGLEWVASIYSYYSSTSYADSVKGRFTISADTSKNTAYLQMNSLRAEDTAVYYCARGALDYWGQGTLVTVSS VL: DIQMTQSPSSLSASVGDRVTITCRASQSVSSAVAWYQQKPGKAPKLLIYSASSLYSGVPSRFSGSRSGTDFTLTISSLQPEDFATYYCQQWYSGHSLITFGQGTKVEIK; ++++
Fab-2926: anti-FZD5 Fab with antibody variable region Fv-2926; CDR SEQ ID NOs: 35, 36, 65, 103, 141, 173 (antibody, V domains shown) VH: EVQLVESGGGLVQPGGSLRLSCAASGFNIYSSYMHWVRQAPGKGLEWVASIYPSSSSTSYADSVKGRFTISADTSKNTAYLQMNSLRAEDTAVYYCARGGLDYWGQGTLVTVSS VL: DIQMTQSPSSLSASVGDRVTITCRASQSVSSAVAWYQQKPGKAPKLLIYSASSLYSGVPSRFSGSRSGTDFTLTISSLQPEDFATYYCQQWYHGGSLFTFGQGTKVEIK; ++++
Fab-2925: anti-FZD5 Fab with antibody variable region Fv-2925; CDR SEQ ID NOs: 35, 36, 64, 102, 140, 172 (antibody, V domains shown) VH: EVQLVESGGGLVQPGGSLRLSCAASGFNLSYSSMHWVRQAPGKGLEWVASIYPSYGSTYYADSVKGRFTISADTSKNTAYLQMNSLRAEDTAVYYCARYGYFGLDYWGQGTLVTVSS VL: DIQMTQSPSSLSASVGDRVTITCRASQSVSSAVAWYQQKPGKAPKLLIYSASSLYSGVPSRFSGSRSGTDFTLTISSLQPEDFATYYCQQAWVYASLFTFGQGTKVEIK; ++++
Fab-2922: anti-FZD5 Fab with antibody variable region Fv-2922; CDR SEQ ID NOs: 35, 36, 61, 99, 137, 171 (antibody, V domains shown) VH: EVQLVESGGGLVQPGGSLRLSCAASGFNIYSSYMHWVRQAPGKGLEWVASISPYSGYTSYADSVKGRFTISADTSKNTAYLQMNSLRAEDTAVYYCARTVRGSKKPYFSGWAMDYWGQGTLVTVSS VL: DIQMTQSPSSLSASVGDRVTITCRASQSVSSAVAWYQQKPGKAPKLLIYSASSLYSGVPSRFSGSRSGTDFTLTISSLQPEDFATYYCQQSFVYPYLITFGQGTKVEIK; ++++

What measured Immunofluorescence binding, Frizzled CRD overexpressed on CHO cells: FZD5 goes with Fab-2929: anti-FZD5 Fab with antibody variable region Fv-2929; CDR SEQ ID NOs: 35, 36, 68, 106, 144, 162 (antibody, V domains shown) VH: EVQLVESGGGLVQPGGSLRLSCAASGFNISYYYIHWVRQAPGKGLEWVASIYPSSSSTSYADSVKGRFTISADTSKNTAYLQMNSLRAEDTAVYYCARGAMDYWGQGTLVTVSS VL: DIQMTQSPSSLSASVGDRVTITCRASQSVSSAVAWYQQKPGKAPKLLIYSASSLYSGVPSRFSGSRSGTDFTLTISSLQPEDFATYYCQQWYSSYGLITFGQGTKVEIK ?
++++
